- System: lymphocytes
- assay.remarks: peptidase activity in leukemia and non-leukemia patients, lymphocytes (Table 6C)
- Type: cell-based, human
- Design: unit not given here
- assay.conditions: N195 normal
Some compounds, each annotated with its measured enzyme activity, Lymphs.

compound	enzyme activity, Lymphs
NCC(=O)N1CCC[C@H]1C(=O)Nc1ccc2c(c1)Oc1cc(NC(=O)[C@@H]3CCCN3C(=O)CN)ccc1C21OC(=O)c2ccccc21 [GP, (H-Gly--Pro)2 Rho .2TFA]	5.24
C[C@H](N)C(=O)Nc1ccc2c(c1)Oc1cc(NC(=O)[C@H](C)N)ccc1C21OC(=O)c2ccccc21	118.81
NC(=O)CC[C@H](N)C(=O)N[C@@H](CO)C(=O)Nc1ccc2c(c1)Oc1cc(NC(=O)[C@H](CO)NC(=O)[C@@H](N)CCC(N)=O)ccc1C21OC(=O)c2ccccc21 [QS, (H-L-Gln--Ser)2 Rho 110 .2TFA]	0.04
C[C@@H](O)[C@H](N)C(=O)N1CCC[C@H]1C(=O)Nc1ccc2c(c1)Oc1cc(NC(=O)[C@@H]3CCCN3C(=O)[C@@H](N)[C@@H](C)O)ccc1C21OC(=O)c2ccccc21 [TP, (H-L-Thr--Pro)2 Rho 110 .2TFA]	1.90
O=C1OC2(c3ccc(NC(=O)[C@@H]4CCCN4)cc3Oc3cc(NC(=O)[C@@H]4CCCN4)ccc32)c2ccccc21 [PRO, (H-L-Pro)2 --Rho 110 .2TFA]	0.88
CC(C)[C@H](N)C(=O)N[C@@H](CO)C(=O)Nc1ccc2c(c1)Oc1cc(NC(=O)[C@H](CO)NC(=O)[C@@H](N)C(C)C)ccc1C21OC(=O)c2ccccc21 [VS, (H-L-Val--Ser)2 Rho 110 .2TFA]	0.06

###

- Tested on: monocytes
- assay.remarks: enzyme activity with fluorogenic substrate, normal monocytes (Table 3A)
- Type: cell-based, human
Numbered stars: 1 amine (or outer) side, 2 acyl side, 3 side chain; on linkers, the order of the positions; unused ones are H or OH. Bridge positions count the residues as written; N and C are the ends. Peptide text beside a SMILES is read from it. I, II: the chains in the order shown. Rhodamine110 = O=C1OC2(c3ccc(N[*:1])cc3Oc3cc(N[*:2])ccc32)c2ccccc21
readout.label: NORMAL LEUKOCYTE ENZYME ACTIVITY MONOS Mean

molecule	study.target	reported.value
C[C@H](NC(=O)CNC(=O)[C@H](Cc1ccccc1)NC(=O)CN)C(=O)Nc1ccc2c(c1)Oc1cc(NC(=O)[C@H](C)NC(=O)CNC(=O)[C@H](Cc3ccccc3)NC(=O)CN)ccc1C21OC(=O)c2ccccc21 [GFGA, (Gly-Phe-Gly-Ala)2 Rho 110] (I: H-GFGA / II: H-GFGA; linker I:C-II:C via Rhodamine110)	monocytes	1.01
CC(C)[C@H](N)C(=O)N[C@@H](CCCCN)C(=O)Nc1ccc2c(c1)Oc1cc(NC(=O)[C@H](CCCCN)NC(=O)[C@@H](N)C(C)C)ccc1C21OC(=O)c2ccccc21	monocytes	43.37
C[C@@H](O)[C@H](NC(=O)OCc1ccccc1)C(=O)N1CCC[C@H]1C(=O)Nc1ccc2c(c1)Oc1cc(NC(=O)[C@@H]3CCCN3C(=O)[C@@H](NC(=O)OCc3ccccc3)[C@@H](C)O)ccc1C21OC(=O)c2ccccc21 [Z-TP6.5M]	monocytes	45.70
CC(=O)Oc1cc2c(cc1Cl)C(c1ccccc1C(=O)O)c1cc(Cl)c(OC(C)=O)cc1O2 [DCFH-DA MES, reference compound]	monocytes	12.28

###

Some molecules, each annotated with its measured enzyme activity, Grans.
- Tested on: granulocytes
- assay.remarks: peptidase activity in leukemia and non-leukemia patients, granulocytes (Table 6C)
- Type: cell-based, human
- Design: unit not given here
- assay.conditions: N192 normal

molecule	enzyme activity, Grans
C[C@@H](O)[C@H](N)C(=O)N1CCC[C@H]1C(=O)Nc1ccc2c(c1)Oc1cc(NC(=O)[C@@H]3CCCN3C(=O)[C@@H](N)[C@@H](C)O)ccc1C21OC(=O)c2ccccc21 [TP, (H-L-Thr--Pro)2 Rho 110 .2TFA]	4.62
NC(=O)CC[C@H](N)C(=O)N[C@@H](CO)C(=O)Nc1ccc2c(c1)Oc1cc(NC(=O)[C@H](CO)NC(=O)[C@@H](N)CCC(N)=O)ccc1C21OC(=O)c2ccccc21 [QS, (H-L-Gln--Ser)2 Rho 110 .2TFA]	0.15

###

- Test system: granulocytes
- assay.remarks: peptidase activity in leukemia and non-leukemia patients, granulocytes (Table 6C)
- Format: cell-based, human
- Parameters: unit not given here
- assay.conditions: N201 normal
Some molecules, each annotated with its measured enzyme activity, Grans.
readout.label: enzyme activity, Grans

molecule	reported.value
NC(=O)CC[C@H](N)C(=O)N[C@@H](CO)C(=O)Nc1ccc2c(c1)Oc1cc(NC(=O)[C@H](CO)NC(=O)[C@@H](N)CCC(N)=O)ccc1C21OC(=O)c2ccccc21 [QS, (H-L-Gln--Ser)2 Rho 110 .2TFA]	0.09
C[C@@H](O)[C@H](N)C(=O)N1CCC[C@H]1C(=O)Nc1ccc2c(c1)Oc1cc(NC(=O)[C@@H]3CCCN3C(=O)[C@@H](N)[C@@H](C)O)ccc1C21OC(=O)c2ccccc21 [TP, (H-L-Thr--Pro)2 Rho 110 .2TFA]	4.23
C[C@H](N)C(=O)Nc1ccc2c(c1)Oc1cc(NC(=O)[C@H](C)N)ccc1C21OC(=O)c2ccccc21	206.06
CC(C)[C@H](N)C(=O)N[C@@H](CO)C(=O)Nc1ccc2c(c1)Oc1cc(NC(=O)[C@H](CO)NC(=O)[C@@H](N)C(C)C)ccc1C21OC(=O)c2ccccc21 [VS, (H-L-Val--Ser)2 Rho 110 .2TFA]	0.32
NCC(=O)N1CCC[C@H]1C(=O)Nc1ccc2c(c1)Oc1cc(NC(=O)[C@@H]3CCCN3C(=O)CN)ccc1C21OC(=O)c2ccccc21 [GP, (H-Gly--Pro)2 Rho .2TFA]	15.92

###

Some molecules, each annotated with its measured aberrant enzyme activity, LYMPHS.
- Test system: lymphocytes
- assay.remarks: aberrant enzyme activities in febrile children, lymphocytes (Table 7)
- Assay type: cell-based, human
- assay.conditions: P88 Enteritis

molecule	aberrant enzyme activity, LYMPHS
CC(=O)Oc1cc2c(cc1Cl)C(c1ccccc1C(=O)O)c1cc(Cl)c(OC(C)=O)cc1O2 [DCFH-DA MES, reference compound]	.smallcircle.
O=C1OC2(c3ccc(OC4O[C@H](CO)[C@H](O)[C@H](O)[C@H]4O)cc3Oc3cc(OC4O[C@H](CO)[C@H](O)[C@H](O)[C@H]4O)ccc32)c2ccccc21 (stereo partly drawn) [GALAC, (D-galactose)2 fluorescein]	.smallcircle.

###

- Test system: lymphocytes
- assay.remarks: aberrant enzyme activities in febrile children, lymphocytes (Table 7)
- Assay type: cell-based, human
- assay.conditions: P96 Viral Syndrome

molecule	aberrant enzyme activity, LYMPHS
CC(C)[C@H](N)C(=O)N[C@@H](CCCCN)C(=O)Nc1ccc2c(c1)Oc1cc(NC(=O)[C@H](CCCCN)NC(=O)[C@@H](N)C(C)C)ccc1C21OC(=O)c2ccccc21	.smallcircle.
CC(C)[C@H](N)C(=O)N[C@@H](CO)C(=O)Nc1ccc2c(c1)Oc1cc(NC(=O)[C@H](CO)NC(=O)[C@@H](N)C(C)C)ccc1C21OC(=O)c2ccccc21 [VS, (H-L-Val--Ser)2 Rho 110 .2TFA]	.smallcircle.
C[C@H](NC(=O)[C@@H](N)CCCCN)C(=O)Nc1ccc2c(c1)Oc1cc(NC(=O)[C@H](C)NC(=O)[C@@H](N)CCCCN)ccc1C21OC(=O)c2ccccc21 [KA-M, (Lys-Ala)2 Rho 110]	.smallcircle.

###

Some compounds, each annotated with its measured aberrant enzyme activity, MONOS.
- Tested on: monocytes
- assay.remarks: aberrant enzyme activities in febrile children, monocytes (Table 7)
- Format: cell-based, human
- assay.conditions: P88 Enteritis

compound	aberrant enzyme activity, MONOS
CC(=O)Oc1ccc2c(c1)Oc1cc(OC(C)=O)ccc1C21OC(=O)c2ccccc21 [FDA, fluorescein diacetate, reference compound]	.smallcircle.
CC(=O)Oc1cc2c(cc1Cl)C(c1ccccc1C(=O)O)c1cc(Cl)c(OC(C)=O)cc1O2 [DCFH-DA MES, reference compound]	.smallcircle.

###

- Tested on: lymphocytes
- assay.remarks: peptidase activity in leukemia and non-leukemia patients, lymphocytes (Table 6C)
- Assay type: cell-based, human
- Parameters: unit not given here
- assay.conditions: N206 normal
readout.label: enzyme activity, Lymphs

molecule	reported.value
C[C@H](N)C(=O)Nc1ccc2c(c1)Oc1cc(NC(=O)[C@H](C)N)ccc1C21OC(=O)c2ccccc21	122.71
NC(=O)CC[C@H](N)C(=O)N[C@@H](CO)C(=O)Nc1ccc2c(c1)Oc1cc(NC(=O)[C@H](CO)NC(=O)[C@@H](N)CCC(N)=O)ccc1C21OC(=O)c2ccccc21 [QS, (H-L-Gln--Ser)2 Rho 110 .2TFA]	0.04
NCC(=O)N1CCC[C@H]1C(=O)Nc1ccc2c(c1)Oc1cc(NC(=O)[C@@H]3CCCN3C(=O)CN)ccc1C21OC(=O)c2ccccc21 [GP, (H-Gly--Pro)2 Rho .2TFA]	7.09
CC(C)[C@H](N)C(=O)N[C@@H](CO)C(=O)Nc1ccc2c(c1)Oc1cc(NC(=O)[C@H](CO)NC(=O)[C@@H](N)C(C)C)ccc1C21OC(=O)c2ccccc21 [VS, (H-L-Val--Ser)2 Rho 110 .2TFA]	0.28
C[C@@H](O)[C@H](N)C(=O)N1CCC[C@H]1C(=O)Nc1ccc2c(c1)Oc1cc(NC(=O)[C@@H]3CCCN3C(=O)[C@@H](N)[C@@H](C)O)ccc1C21OC(=O)c2ccccc21 [TP, (H-L-Thr--Pro)2 Rho 110 .2TFA]	2.89

Where do these numbers come from? They come from patent US5698411A.
